Test system: 855422-203-R-J1-PDC spheroids with HUVEC/MSC, viability;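 note: agents incubated with spheroids for one week before read-out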
Assay: Anticancer human tumor 855422-203-R-J1-PDC patient-derived bladder carcinoma cell line growth inhibition [PI3K]; active = viability on the fitted dose curve at most 10% of control; inactive = the rest
Details: second compound 1 µM; first compound 0.1 µM
Possible outcomes: active, inactive

INSERT INTO assay_data (compound, assayed_system, label_class) VALUES
  ('CNC(=O)c1ccc(N2C(=S)N(c3ccc(C#N)c(C(F)(F)F)c3)C(=O)C2(C)C)cc1F + COc1c(OCCCN2CCOCC2)ccc2c3n(c(=NC(=O)c4cnc(N)nc4)nc12)CCN3', '855422-203-R-J1-PDC spheroids with HUVEC/MSC, viability', 'active'),
  ('CC1(C)CCC(Nc2ncc(C(F)(F)F)c(-c3c[nH]c4c(P(C)(C)=O)c(C#N)ccc34)n2)CN1 (stereo not given) + Cc1nc(NC(=O)N2CCCC2C(N)=O)sc1-c1ccnc(C(C)(C)C(F)(F)F)c1', '855422-203-R-J1-PDC spheroids with HUVEC/MSC, viability', 'inactive'),
  ('CCN1CCN(Cc2ccc(Nc3ncc(F)c(-c4cc(F)c5nc(C)n(C(C)C)c5c4)n3)nc2)CC1 + Cc1nc(NC(=O)N2CCCC2C(N)=O)sc1-c1ccnc(C(C)(C)C(F)(F)F)c1', '855422-203-R-J1-PDC spheroids with HUVEC/MSC, viability', 'inactive'),
  ('Cn1nccc1Nc1nccc(-c2ccn(C(CO)c3ccc(Cl)c(F)c3)c(=O)c2)n1 (stereo not given) + COc1c(OCCCN2CCOCC2)ccc2c3n(c(=NC(=O)c4cnc(N)nc4)nc12)CCN3', '855422-203-R-J1-PDC spheroids with HUVEC/MSC, viability', 'active'),
  ('CC(C)NCC(C(=O)N1CCN(c2ncnc3c2C(C)CC3O)CC1)c1ccc(Cl)cc1 (stereo not given) + COc1c(OCCCN2CCOCC2)ccc2c3n(c(=NC(=O)c4cnc(N)nc4)nc12)CCN3', '855422-203-R-J1-PDC spheroids with HUVEC/MSC, viability', 'active'),
  ('CC(C)NCC(C(=O)N1CCN(c2ncnc3c2C(C)CC3O)CC1)c1ccc(Cl)cc1 (stereo not given) + CC(Nc1ncnc2nc[nH]c12)c1cc2cccc(Cl)c2c(=O)n1-c1ccccc1', '855422-203-R-J1-PDC spheroids with HUVEC/MSC, viability', 'inactive'),
  ('CC(Cn1ccc(-c2ccc(C#N)c(Cl)c2)n1)NC(=O)c1cc(C(C)O)[nH]n1 (stereo not given) + COc1c(OCCCN2CCOCC2)ccc2c3n(c(=NC(=O)c4cnc(N)nc4)nc12)CCN3', '855422-203-R-J1-PDC spheroids with HUVEC/MSC, viability', 'active'),
  ('Cn1ncc(Cl)c1-c1cc(C(=O)NC(CN)Cc2cccc(F)c2)sc1Cl (stereo not given) + CC(Nc1ncnc2nc[nH]c12)c1cc2cccc(Cl)c2c(=O)n1-c1ccccc1', '855422-203-R-J1-PDC spheroids with HUVEC/MSC, viability', 'inactive'),
  ('CC(C)NCC(C(=O)N1CCN(c2ncnc3c2C(C)CC3O)CC1)c1ccc(Cl)cc1 (stereo not given) + Cc1nc(NC(=O)N2CCCC2C(N)=O)sc1-c1ccnc(C(C)(C)C(F)(F)F)c1', '855422-203-R-J1-PDC spheroids with HUVEC/MSC, viability', 'inactive'),
  ('CC1(C)CCC(Nc2ncc(C(F)(F)F)c(-c3c[nH]c4c(P(C)(C)=O)c(C#N)ccc34)n2)CN1 (stereo not given) + CC(Nc1ccc2c(c1)OCCn1cc(N3C(=O)OCC3C(F)F)nc1-2)C(N)=O', '855422-203-R-J1-PDC spheroids with HUVEC/MSC, viability', 'inactive'),
  ('Cn1nccc1Nc1nccc(-c2ccn(C(CO)c3ccc(Cl)c(F)c3)c(=O)c2)n1 (stereo not given) + CC(Nc1ncnc2nc[nH]c12)c1cc2cccc(Cl)c2c(=O)n1-c1ccccc1', '855422-203-R-J1-PDC spheroids with HUVEC/MSC, viability', 'inactive'),
  ('Cn1ncc(Cl)c1-c1cc(C(=O)NC(CN)Cc2cccc(F)c2)sc1Cl (stereo not given) + COc1c(OCCCN2CCOCC2)ccc2c3n(c(=NC(=O)c4cnc(N)nc4)nc12)CCN3', '855422-203-R-J1-PDC spheroids with HUVEC/MSC, viability', 'active'),
  ('CCCS(=O)(=O)Nc1ccc(F)c(C(=O)c2c[nH]c3ncc(-c4ccc(Cl)cc4)cc23)c1F + CC(Nc1ncnc2nc[nH]c12)c1cc2cccc(Cl)c2c(=O)n1-c1ccccc1', '855422-203-R-J1-PDC spheroids with HUVEC/MSC, viability', 'inactive'),
  ('C=CC(=O)N1CCN(c2nc(=O)n(-c3c(C)ccnc3C(C)C)c3nc(-c4c(O)cccc4F)c(F)cc23)C(C)C1 (stereo not given) + CC(Nc1ccc2c(c1)OCCn1cc(N3C(=O)OCC3C(F)F)nc1-2)C(N)=O', '855422-203-R-J1-PDC spheroids with HUVEC/MSC, viability', 'inactive'),
  ('C#Cc1c(F)ccc2cc(O)cc(-c3ncc4c(N5CC6CCC(C5)N6)nc(OCC56CCCN5CC(F)C6)nc4c3F)c12 (stereo not given) + CC(Nc1ccc2c(c1)OCCn1cc(N3C(=O)OCC3C(F)F)nc1-2)C(N)=O', '855422-203-R-J1-PDC spheroids with HUVEC/MSC, viability', 'inactive');

The reported numbers originate from PubChem BioAssay AID1963967.
